Source listed as a melting point compilation (Tetko et al.).

Quantity: melting point (°C)

Molecule: CCCCCCCC(N)=O
melting point, °C: 108

P: C=CCOc1ccc(CC(=O)O)cc1Cl
Q: O=[N+]([O-])c1cc([N+](=O)[O-])c(C(Cl)C(Cl)c2ccccc2)cc1/C=C\c1ccccc1 (stereo unspecified)
Asked: Which record would sort first by descending melting point, P or Q ? Please indicate the selected item by its label.
Given back: Q
(Q: 181 °C, P: 92 °C)

---

Quantity: melting point (°C)

Molecule: c1ccc(N2CCN(c3ccccc3)CC2)cc1
Unit info: °C
melting point: 165

P: CC(C)[C@H](N)C(O)(c1ccccc1)c1ccccc1
Q: CC12CCC(O)CC1CCC1C2C(O)CC2(C)C1CCC2(O)C(=O)CO (stereo unspecified)
Asked: For P and Q , which recorded melting point is lower? Please indicate the selected item by its label.
Given back: P
